Target: UniProt P00748
Sequence (P00748 373-615): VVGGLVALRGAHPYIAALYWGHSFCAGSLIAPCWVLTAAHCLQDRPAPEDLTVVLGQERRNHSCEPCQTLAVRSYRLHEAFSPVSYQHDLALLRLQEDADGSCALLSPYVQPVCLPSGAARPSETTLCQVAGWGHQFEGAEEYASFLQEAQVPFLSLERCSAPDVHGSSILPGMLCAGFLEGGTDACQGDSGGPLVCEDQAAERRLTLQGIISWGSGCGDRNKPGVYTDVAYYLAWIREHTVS
Sequence (P00748 20-372 partner): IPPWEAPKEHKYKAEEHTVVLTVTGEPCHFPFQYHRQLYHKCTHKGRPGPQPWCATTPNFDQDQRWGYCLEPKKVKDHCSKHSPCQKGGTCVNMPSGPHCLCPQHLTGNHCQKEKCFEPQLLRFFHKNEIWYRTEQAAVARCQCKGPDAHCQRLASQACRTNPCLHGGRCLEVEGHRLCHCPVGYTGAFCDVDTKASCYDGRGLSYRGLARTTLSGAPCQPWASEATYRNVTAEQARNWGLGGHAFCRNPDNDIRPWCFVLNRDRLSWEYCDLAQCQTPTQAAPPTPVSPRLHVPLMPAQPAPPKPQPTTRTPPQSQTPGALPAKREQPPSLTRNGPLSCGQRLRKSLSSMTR
pIC50: −log10 of the molar value.
Given measured pIC50, output met if it is greater than or equal to 5 and not met if not.

Cc1cc2c(C(=O)n3nc4c(c3N)CN(C)CC4)cccc2[nH]1    met
CC(=O)N1CCc2nn(C(=O)C3CCNc4ccccc43)c(N)c2C1 (centres unmarked)    met
Nc1nn(C(=O)C2CCNc3ccccc32)c2c1CCN(C(=O)OCc1ccccc1)C2 (centres unmarked)    not met
Nc1c2c(nn1C(=O)C1CCNc3ccccc31)CN(S(=O)(=O)c1ccccc1)CC2 (centres unmarked)    met
Nc1c2c(nn1C(=O)C1CCNc3ccc(F)cc31)COCC2 (centres unmarked)    met
CS(=O)(=O)N1CCc2c(N)nn(C(=O)C3CCNc4ccccc43)c2C1 (centres unmarked)    not met
CCN1CCc2c(nn(C(=O)[C@H]3CCNc4c(C)cccc43)c2N)C1 (single isomer, unassigned)    met
Cc1cccc2c1NCCC2C(=O)n1nc(N)c2c1CNCC2 (centres unmarked)    not met
CS(=O)(=O)N1CCc2c(N)nn(C(=O)C3CCCc4[nH]c(Cl)cc43)c2C1 (centres unmarked)    not met
Nc1c2c(nn1C(=O)C1CCNc3ccc(F)cc31)CN(c1ccccn1)CC2 (centres unmarked)    not met
Nc1c2c(nn1C(=O)C1CCNc3ccc(F)cc31)CN(c1ccccc1)CC2 (centres unmarked)    met
CS(=O)(=O)N1CCc2c(nn(C(=O)C3CCNc4c(Cl)cccc43)c2N)C1 (centres unmarked) [Example 57]    met
CC(C)N1CCc2c(nn(C(=O)C3CCNc4ccc(F)cc43)c2N)C1 (centres unmarked)    met
CS(=O)(=O)N1CCc2c(nn(C(=O)[C@@H]3CCNc4ccccc43)c2N)C1 (single isomer, unassigned)    not met
CCN1CCc2c(nn(C(=O)C3CCNc4ccc(F)cc43)c2N)C1 (centres unmarked)    met
CC(C)c1ccc2c(c1)C(C(=O)n1nc(N)c3c1CN(S(C)(=O)=O)CC3)CCN2 (centres unmarked)    not met

Recorded values, source patent US11312723B2.
